# assayed target: CXCR4 receptor (human, UniProt P61073 1-352)
# Sequence (P61073 whole entry): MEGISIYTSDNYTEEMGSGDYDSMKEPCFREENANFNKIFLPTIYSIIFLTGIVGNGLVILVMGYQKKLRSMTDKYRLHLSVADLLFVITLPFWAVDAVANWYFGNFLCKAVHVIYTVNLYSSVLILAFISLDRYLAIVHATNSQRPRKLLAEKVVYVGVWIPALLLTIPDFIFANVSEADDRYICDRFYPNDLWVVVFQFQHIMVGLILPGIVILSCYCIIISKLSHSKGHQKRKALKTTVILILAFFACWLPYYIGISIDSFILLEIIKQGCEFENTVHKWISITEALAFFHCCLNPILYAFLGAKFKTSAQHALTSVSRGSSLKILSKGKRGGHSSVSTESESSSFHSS
# method notes: cell-based or functional assay
Where no end group is shown, it is not given here. [ ]: non-standard residue; d: D form. The star is where a group is joined. Palmitoyl = CCCCCCCCCCCCCCCC(=O)*; code z = not defined here; hSer = N[C@@H](CCO)C(=O)O; Nle = CCCC[C@H](N)C(=O)O
Listing: % Intrinsic Activity, calcium flux, CEM cells (Flexstation) of selected binders
Your answer should be a number followed by the unit of measure.

Reported % Intrinsic Activity, calcium flux, CEM cells (Flexstation) of Pal-GGYQKKLR[dP]WTDKYRL [Compound No. 33 (Pal-GGYQKKLRpWTDKYRL)] : 93%

Reported % Intrinsic Activity, calcium flux, CEM cells (Flexstation) of Pal-[hSer]GYQKKLRS[hSer]TDKYRL [Compound No. 22 (Pal-xGYQKKLRSxTDKYRL)] : 77.7%

Reported % Intrinsic Activity, calcium flux, CEM cells (Flexstation) of Pal-GGYQKKLR[dP][dP]HTDKYRL [Compound No. 32 (Pal-GGYQKKLRppHTDKYRL)] : 91.1%

Reported % Intrinsic Activity, calcium flux, CEM cells (Flexstation) of Palmitoyl-MGYQKKLRPSMTDKYRL (not fully specified) [Compound No. 8 (Pal-MGYQKKLRPSMTDKYRL)] : 88%

Reported % Intrinsic Activity, calcium flux, CEM cells (Flexstation) of Pal-[code z]GYQKKLRS[code z]TDKYRL (not fully specified; printed as Pal-zGYQKKLRSzTDKYRL; reading uncertain) [Compound No. 23 (Pal-zGYQKKLRSzTDKYRL)] : 87.2%

Reported % Intrinsic Activity, calcium flux, CEM cells (Flexstation) of Palmitoyl-MGYQKKLPRSMTDKYRL (not fully specified) [Compound No. 7 (Pal-MGYQKKLPRSMTDKYRL)] : 100%

Reported % Intrinsic Activity, calcium flux, CEM cells (Flexstation) of Pal-MGYQKKLRSMTDKYR[Nle] [Compound No. 12 (Pal-MGYQKKLRSMTDKYR(Nle))] : 73.2%
